study_system: T1, Cynomolgus OSM (cynomolgus, UniProt A0A2K5VPC6 26-221)
T1 construct: also called Cyno OSM; cynomolgus macaque OSM
T1 sequence: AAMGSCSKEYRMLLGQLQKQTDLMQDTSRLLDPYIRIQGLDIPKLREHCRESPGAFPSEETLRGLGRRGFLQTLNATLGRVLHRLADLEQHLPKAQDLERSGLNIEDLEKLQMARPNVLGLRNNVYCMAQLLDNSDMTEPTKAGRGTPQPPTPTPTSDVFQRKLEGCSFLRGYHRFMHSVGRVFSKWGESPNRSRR
experimental_details: BIAcore kinetics, purified antibody
Reported kon by item:
Field: numeric (M⁻¹ s⁻¹). Do not append units.

- binder: "Humanised 10G8 H1L4 (antibody, V domains shown) VH: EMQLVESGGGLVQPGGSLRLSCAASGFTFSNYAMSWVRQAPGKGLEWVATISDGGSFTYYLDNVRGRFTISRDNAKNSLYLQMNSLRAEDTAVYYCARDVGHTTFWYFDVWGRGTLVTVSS VL: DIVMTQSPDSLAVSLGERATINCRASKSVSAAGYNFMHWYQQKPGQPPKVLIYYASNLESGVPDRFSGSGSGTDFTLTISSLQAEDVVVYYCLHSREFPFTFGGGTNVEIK"
  kon [M⁻¹ s⁻¹]: 421000

Moving on to another binder below.
Exercise: Name the reported kon value associated with the binder 10G8 chimaera (antibody, human IgG1, kappa, V domains shown, Mouse V regions on human gamma 1 wild type and human kappa constant regions; the entries called VH/VL domain (chimera) are full chains; also called 10G8 chimera; 10G8 Chimæra) VH: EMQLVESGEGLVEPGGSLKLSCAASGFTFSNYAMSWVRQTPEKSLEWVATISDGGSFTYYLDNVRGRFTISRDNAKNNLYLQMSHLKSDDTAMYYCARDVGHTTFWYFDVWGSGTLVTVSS VL: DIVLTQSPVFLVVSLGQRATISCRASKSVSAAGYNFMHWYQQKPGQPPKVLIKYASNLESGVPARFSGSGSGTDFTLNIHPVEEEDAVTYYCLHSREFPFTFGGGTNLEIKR
Solution: 253000
